# EC50 of ADCC, A431 cells annotations
- tested.target: human tissue factor (TF), membrane-bound on cells (human, UniProt P13726 33-295)
- test.protocol: cell-based or functional assay
API: value field is a number in nM; no unit string.

- binder: "anti-TF HuMab 044 (antibody, V domains shown, Human monoclonal antibody from HuMab mice) VH: QVQLVESGGGVVQPGRSLRLSCAASGFTFSDYAMHWVRQAPGKGLEWVAVIPYDGDNKYYADSVKGRFTISRDNSKNTLYLQMNSLRAEDTAVYYCAREDWGLEVDYWGQGALVTVSS VL: AIQLTQSPSSLSASVGDRVTITCRASQGINSALAWYQQKPGKAPKLLIYDASSLESGVPSRFSGSGSGTDFTLTISSLQPEDFATYYCQQFNSYPLTFGGGTKVEIK"
  EC50 of ADCC, A431 cells, nM: 0.19

Form field: reported EC50 of ADCC, A431 cells of anti-TF HuMab 025 (antibody, V domains shown, Human monoclonal antibody from HuMab mice) VH: QVQLVESGGGVVQPGRSLRLSCAASGFTFSRYAMHWVRQAPGKGLEWVAVISNDGYNDYYADSVKGRFTVSRDNSKNTLYLQMNSLRAEDTAVYYCARDGQLGRGYFDYWGQGTLVTVSS VL: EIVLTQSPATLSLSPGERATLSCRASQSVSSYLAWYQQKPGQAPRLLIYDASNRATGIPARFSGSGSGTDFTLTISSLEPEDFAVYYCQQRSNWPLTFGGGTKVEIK
0.16
